Tested on: NCI-H1688
Assay: inhibition of cell viability relative to untreated control (fraction); higher = stronger growth inhibition, active = 0.5 or more
Conditions: 30 µM; 24 h
measured_endpoint: inhibition of cell viability

{"compound": "CC(=O)[C@@]1(O)CC[C@H]2[C@@H]3CCC4=CC(=O)CC[C@]4(C)[C@H]3CC[C@@]21C [Hydroxyprogesterone]", "measured_endpoint": "inhibition of cell viability", "result_value": "0.102 (inactive)"}
{"compound": "C=C1CC[C@@H]2[C@](C)(CO)[C@H](O)CC[C@@]2(C)[C@H]1C/C=C1\\C=COC1=O [Dehydroandrographolide]", "measured_endpoint": "inhibition of cell viability", "result_value": "0.14 (inactive)"}
{"compound": "O=C1c2c(O)cc(O)cc2OC(c2ccc(O)c(O)c2)C1O (stereo not drawn) [Taxifolin (Dihydroquercetin)]", "measured_endpoint": "inhibition of cell viability", "result_value": "0.086 (inactive)"}
{"compound": "OCCc1ccc(O)cc1 [Tyrosol]", "measured_endpoint": "inhibition of cell viability", "result_value": "0.0116 (inactive)"}
{"compound": "CC(C)=CCC/C(C)=C/CC/C(C)=C/CC/C(C)=C/CC/C(C)=C/CC/C(C)=C/CC/C(C)=C/CC/C(C)=C/CC/C(C)=C/CO [Solanesol]", "measured_endpoint": "inhibition of cell viability", "result_value": "0.301 (inactive)"}
{"compound": "O=c1c2ccccc2nc2n1CCc1c-2[nH]c2ccccc12 [Rutaecarpine]", "measured_endpoint": "inhibition of cell viability", "result_value": "-0.128 (inactive)"}
{"compound": "C/C=C1\\[C@H]2C=C(C)C[C@]1(N)c1ccc(=O)[nH]c1C2 [(-)-Huperzine A (HupA)]", "measured_endpoint": "inhibition of cell viability", "result_value": "0.178 (inactive)"}
{"compound": "O=C(O)C(O)Cc1ccc(O)c(O)c1 (stereo not drawn) [Sodium Danshensu]", "measured_endpoint": "inhibition of cell viability", "result_value": "-0.0463 (inactive)"}

###

Tested on: NCI-H1688
Assay: inhibition of cell viability relative to untreated control (fraction); higher = stronger growth inhibition, active = 0.5 or more
Settings: 30 µM; 24 h
Outcomes: true (1) = active, false (0) = inactive

{"molecule": "O=C1C[C@@H](c2ccccc2)Oc2cc(O)cc(O)c21", "discrete_label": "false (0)"}
{"molecule": "C[n+]1cccc(C(=O)[O-])c1 [Trigonelline]", "discrete_label": "false (0)"}
{"molecule": "Oc1cc(O)cc(/C=C/c2ccc(O)c(O)c2)c1", "discrete_label": "false (0)"}
{"molecule": "CO[C@H]1C[C@H](O[C@H]2[C@H](C)O[C@@H](O[C@@H]3/C(C)=C/C[C@@H]4C[C@@H](C[C@]5(C=C[C@H](C)[C@@H](C6CCCCC6)O5)O4)OC(=O)[C@@H]4C=C(C)[C@@H](O)[C@H]5OC/C(=C\\C=C\\[C@@H]3C)[C@]54O)C[C@@H]2OC)O[C@@H](C)[C@@H]1O", "discrete_label": "true (1)"}
{"molecule": "C=C(C)[C@@H]1CC[C@]2(C(=O)O)CC[C@]3(C)[C@H](CC[C@@H]4[C@@]5(C)CC[C@H](O)C(C)(C)[C@@H]5CC[C@]43C)[C@@H]12", "discrete_label": "true (1)"}
{"molecule": "COc1ccc(/C=C\\c2cc(OC)c(OC)c(OC)c2)cc1O", "discrete_label": "true (1)"}
{"molecule": "O=C1c2c(O)cc(O)cc2O[C@H](c2cc(O)c(O)c(O)c2)[C@H]1O [Dihydromyricetin]", "discrete_label": "true (1)"}
{"molecule": "O=C(O)C1=C[C@@H](O)[C@@H](O)[C@H](O)C1", "discrete_label": "false (0)"}
{"molecule": "NC(=O)NCCC[C@H](N)C(=O)O", "discrete_label": "false (0)"}
{"molecule": "CC[C@H](CC[C@@H](C)[C@H]1CC[C@H]2[C@@H]3CC=C4C[C@@H](O)CC[C@]4(C)[C@H]3CC[C@]12C)C(C)C", "discrete_label": "false (0)"}
{"molecule": "Cc1ncc(CO)c(CO)c1O [Pyridoxine]", "discrete_label": "false (0)"}
{"molecule": "O=c1c(O[C@@H]2O[C@H](CO)[C@H](O)[C@H](O)[C@H]2O)c(-c2ccc(O)c(O)c2)oc2cc(O)cc(O)c12 [Hyperoside]", "discrete_label": "false (0)"}
{"molecule": "CC1(C)CCCC2(C)OC(=O)C=C12 (centres undefined) [Dihydroactinidiolide]", "discrete_label": "false (0)"}
{"molecule": "OCC1OC(OC2C(CO)OC(O)C(O)C2O)C(O)C(O)C1O (centres undefined)", "discrete_label": "false (0)"}
